Recorded measurements of Kd, one per entry
- Measured Target: FKBP12 ternary complex with FRB (Homo sapiens, UniProt P42345+P62942)
- Sequence (P62942 whole entry): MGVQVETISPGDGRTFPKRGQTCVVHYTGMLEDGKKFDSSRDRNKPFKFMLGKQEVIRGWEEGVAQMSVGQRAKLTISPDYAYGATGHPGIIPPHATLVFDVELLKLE
- Sequence (P42345 2012-2144 limits assumed): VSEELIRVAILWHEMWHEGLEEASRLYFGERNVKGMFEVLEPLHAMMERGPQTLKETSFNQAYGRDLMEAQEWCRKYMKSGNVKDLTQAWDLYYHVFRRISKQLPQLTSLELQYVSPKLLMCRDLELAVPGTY
- Protocol Text: SPR assay to characterize ternary complex formation with FKBP12 (FRB injected over compound-saturated FKBP12)
- Run Conditions: FRB dilutions with 100 nM test compound over immobilized FKBP12
Quantity Measured: Kd

INSERT INTO measurements (molecule, quantity_measured, observed_measurement) VALUES
  ('CO[C@@H]1C[C@H](C[C@@H](C)[C@@H]2CC(=O)[C@H](C)/C=C(\C)[C@@H](O)[C@@H](OC)C(=O)[C@H](C)C[C@H](C)/C=C/C=C/C=C(\C)[C@H](OCCc3ccccc3)C[C@@H]3CC[C@@H](C)[C@@](O)(O3)C(=O)C(=O)N3CCCCC3C(=O)O2)CC[C@H]1O (stereo partly drawn)', 'Kd', '< 500 nM'),
  ('COCCO[C@@H]1C[C@@H]2CC[C@@H](C)[C@@](O)(O2)C(=O)C(=O)N2CCCC[C@H]2C(=O)O[C@H]([C@H](C)C[C@@H]2CC[C@@H](OCCO)[C@H](OC)C2)CC(=O)[C@H](C)/C=C(\C)[C@@H](O)[C@@H](OC)C(=O)[C@H](C)C[C@H](C)/C=C/C=C/C=C/1C', 'Kd', '500 to 1100 nM'),
  ('CO[C@@H]1C[C@H](C[C@@H](C)[C@@H]2CC(=O)[C@H](C)/C=C(\C)[C@@H](O)[C@@H](OC)C(=O)[C@H](C)C[C@H](C)/C=C/C=C/C=C(\C)[C@H](OCCOCCO)C[C@@H]3CC[C@@H](C)[C@@](O)(O3)C(=O)C(=O)N3CCCC[C@H]3C(=O)O2)CC[C@H]1O', 'Kd', '> 1100 nM');
